Target: recombinant human MASP2 active protease (amino acids 297-686, C-terminal His Tag) (human, UniProt O00187 297-686)
Sequence (O00187 other isoform, or with tags, fused parts or gaps limits assumed): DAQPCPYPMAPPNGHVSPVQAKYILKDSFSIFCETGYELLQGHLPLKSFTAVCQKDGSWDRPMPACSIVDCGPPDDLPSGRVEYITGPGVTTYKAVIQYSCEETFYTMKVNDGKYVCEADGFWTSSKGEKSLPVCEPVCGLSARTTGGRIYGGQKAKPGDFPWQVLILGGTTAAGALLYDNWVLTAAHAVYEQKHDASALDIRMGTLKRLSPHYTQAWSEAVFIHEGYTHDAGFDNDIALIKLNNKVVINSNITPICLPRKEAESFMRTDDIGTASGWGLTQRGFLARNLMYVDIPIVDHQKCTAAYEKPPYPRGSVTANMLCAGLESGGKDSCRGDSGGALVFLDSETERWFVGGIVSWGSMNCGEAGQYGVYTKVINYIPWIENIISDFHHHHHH
Assay: cell-based or functional assay
Bridge positions count the residues as written; N and C are the ends. Square brackets hold non-standard residues; d marks the D form. Ends that are not written are not given here. Pro(4-spirocPr) = O=C(O)[C@@H]1CC2(CC2)CN1; tBuAla = CC(C)(C)C[C@H](N)C(=O)O; Pen = CC(C)(S)[C@H](N)C(=O)O
Kindly state human MASP2 IC50 for each of the entries shown.
Numbers only, in nM.

{"columns": ["BINDER", "human MASP2 IC50 [nM]"],
 "data": [
  ["AICSRS[tBuAla]PPI[Pen]IP[dN]-NH2 (disulfide 3-11; N-terminus assumed; SMILES CC[C@H](C)[C@H](NC(=O)[C@H](C)N)C(=O)N[C@H]1CSSC(C)(C)[C@@H](C(=O)N[C@H](C(=O)N2CCC[C@H]2C(=O)N[C@H](CC(N)=O)C(N)=O)[C@@H](C)CC)NC(=O)[C@H]([C@@H](C)CC)NC(=O)[C@@H]2CCCN2C(=O)[C@@H]2CCCN2C(=O)[C@H](CC(C)(C)C)NC(=O)[C@H](CO)NC(=O)[C@H](CCCNC(=N)N)NC(=O)[C@H](CO)NC1=O) [AIC+SRS-((tBu)A)-PPI-(Pen)+IPn-NH2]", 53]
]}

API: the following record is the query input.
*Q* Fill in the blank: the reported human MASP2 IC50 of AICSRSLP[Pro(4-spirocPr)]I[Pen]IPD-NH2 (disulfide 3-11; N-terminus assumed; SMILES CC[C@H](C)[C@H](NC(=O)[C@H](C)N)C(=O)N[C@H]1CSSC(C)(C)[C@@H](C(=O)N[C@H](C(=O)N2CCC[C@H]2C(=O)N[C@@H](CC(=O)O)C(N)=O)[C@@H](C)CC)NC(=O)[C@H]([C@@H](C)CC)NC(=O)[C@@H]2CC3(CC3)CN2C(=O)[C@@H]2CCCN2C(=O)[C@H](CC(C)C)NC(=O)[C@H](CO)NC(=O)[C@H](CCCNC(=N)N)NC(=O)[C@H](CO)NC1=O) [AIC+SRSLP-((6S)-5-Azaspiro[2.4]heptane-6-carboxylic acid)-I-(Pen)+IPD-NH2] is ____.
*A* 18
